- Tested on: E. coli TESEC Mtb Alr
- protocol_notes: growth (OD600 after 10 h); higher = more growth (less inhibition)
- measurement_context: arabinose 100000 nM; compound 0.1 mM; raw OD600 reference: median of DMSO wells 0.201, cell-free background 0.041
Structures can show the parent of a compound that is named as a salt.
measure: growth
Just the number, please.

Consider the worked cases shown below.
O=C1[C@H](CC[C@H](O)c2ccc(F)cc2)[C@@H](c2ccc(O)cc2)N1c1ccc(F)cc1 [Ezetimibe]
0.0462
CC(=O)OCC(=O)[C@@]1(OC(C)=O)[C@@H](C)C[C@H]2[C@@H]3C[C@H](F)C4=CC(=O)C=C[C@]4(C)[C@@]3(F)[C@@H](O)C[C@@]21C [Diflorasone Diacetate]
0.194
COCCCC/C(=N\OCCN)c1ccc(C(F)(F)F)cc1 [Fluvoxamine maleate]
0.214
C[C@@H]1CN(c2c(F)c(N)c3c(=O)c(C(=O)O)cn(C4CC4)c3c2F)C[C@H](C)N1 [Sparfloxacin]
0.0433

Recorded result, OCCOCCN1CCN(C(c2ccccc2)c2ccc(Cl)cc2)CC1 (configuration not stated) [Hydroxyzine dihydrochloride] , growth: 0.171

Recorded result, O=C(O)c1cc(-c2ccc(F)cc2F)ccc1O [Diflunisal] , growth: 0.119

Recorded result, CN(C)CCC[C@@]1(c2ccc(F)cc2)OCc2cc(C#N)ccc21 [Escitalopram oxalate] , growth: 0.199
